target: anti-A034 antibody (C4 PET); test: peptide competition assay in 6% BSA
Where no end group is shown, it is not given here.
MEASURED_METRIC: IC50 (nM)
// note: answer is a bare numeric in nM

Qu. Quick one: IC50 for CQTDQPIYNPGQR-NH2 [A034 peptide (C4), …-NH2] ?
Ans. 4
